- System: SK-MEL-5
- Experimental Details: NCI tumour cell line growth inhibition, 48 h
Activity calls are given as the source filed them. Rule as the data show it: active = GI50 up to about 1.1 µM and inactive = higher. Non-standard residues stand in square brackets, D forms with d. Residues, ends and D or L forms follow the SMILES beside them. ξ: configuration not given here. *: point of attachment. X18 = COC1=CC(=O)N(C(=O)C(O*)C(C)C)C1Cc1ccccc1; ξNMe2Val = CC(C)C(C(=O)*)N(C)C; NMeV = CN[CH](C(=O)O)C(C)C
Please reply with one of these outcomes: active, inactive

Q) Could you kindly confirm the outcome this assay logged for NCCCCC(N)C(=O)NCCNc1ccc(NCCNC(=O)C(N)CCCCN)c2c1C(=O)c1ccccc1C2=O (stereo not given) ?
A) inactive

Q) For this compound, state the assay outcome: O=C1C[C@@H](c2ccccc2)O[C@@H](c2ccccc2)C1
A) inactive

Q) Hi, sorry to bother you, what did the test record for CC(SC1=CC(=O)c2c(Cl)ccc(O)c2C1=O)C(=O)O (stereo not given) ?
A) inactive

Q) What was the test verdict on COC(=O)c1c(O)ccc2c1c1cc3ccccc3c(O)c1n2CCc1ccc(OC)c(OC)c1 ?
A) inactive

Q) Outcome logged for O=C1C(=Cc2c(O)cc(O)cc2O)C(=O)c2ccccc21 in this assay:
A) inactive

Q) Hi, sorry to bother you, what did the test record for O=c1[nH]nc(Nc2ccccc2)c2nnn(Cc3ccccc3)c12 ?
A) inactive

Q) Per the assay record, what outcome was assigned to COC1[C@@H](OC(C)=O)[C@@H](NC(=O)C(Cl)(Cl)Cl)C(I)[C@@H](N2C(=O)c3ccccc3C2=O)[C@H]1OC (stereo not given in full) ?
A) inactive

Q) Check the results log: what was the call for COC(=O)c1c(O)ccc2c1c1c(n2CCc2ccc(OC)c(OC)c2)C(=O)c2ccccc2C1=O ?
A) inactive

Q) Tell me the assay call for COc1ccccc1NC(=O)C1=C(C)NC(C)=C(C(=O)Nc2ccccc2OC)C1C1=CC=COC1 please.
A) inactive

Q) What call does the record list for Cc1cc(Cl)ccc1/N=N/C(=O)NNc1ccc(Cl)cc1C ?
A) inactive

Q) // return assay outcome for COc1ccc(CCNC(=O)c2ccccc2C2c3ccc(OCc4ccccc4)cc3Oc3cc(OCc4ccccc4)ccc32)cc1OC
A) inactive

Q) Returns: the outcome recorded for N#C[BH2-][n+]1ccc(C(=O)NNCc2ccc(F)cc2)cc1 in this assay.
A) inactive

Q) // return assay outcome for O=c1cc(-c2ccccc2)oc2cc(Oc3nnnn3-c3ccccc3)ccc12
A) inactive

Q) Check the results log: what was the call for O=c1[nH]nc(NCc2ccccc2)c2nnn(Cc3ccccc3)c12 ?
A) inactive

Q) Field: outcome | Entry: COC1=CC(=O)N(C(=O)C(OC(=O)C2CCCN2C(=O)C2CCCN2C(=O)C(C(C)C)N(C)C(=O)C(NC(=O)C(C(C)C)N(C)C)C(C)C)C(C)C)C1Cc1ccccc1 (stereo not given) (ξNMe2Val-V[NMeV]PP-X18; configuration not given here)
A) active

Q) What is the recorded call for this compound in the test? CN(CC1(CO)CCC1)c1cc(Cl)nc(N)n1
A) inactive

Q) Hello, I am checking results. What call was entered for COC(NC(N)=O)C(=O)O (stereo not given) ?
A) inactive

Q) What outcome does the record of this test show for CSCCC(NC(c1ccccc1)c1ccccc1)[PH](=O)O (stereo not given) ?
A) inactive

Q) Each compound tested received a call. Report the one for O=C(Oc1cccc2cccnc12)c1cc2cc(CCl)ccc2oc1=O .
A) inactive

Q) Outcome logged for Cc1n[nH]c(N)c1C(N)=O in this assay:
A) inactive
